System: Stenotrophomonas maltophilia
Assay: Antibacterial activity against gram-negative Stenotrophomonas maltophilia SM256 by CLSI method
Assay type: functional
Some molecules, each annotated with its measured MIC.

MOLECULE	RESULT COMPARATOR	MIC / µg/mL
CN(C)[C@@H]1C(O)=C(C(N)=O)C(=O)[C@@]2(O)C(O)=C3C(=O)c4c(O)cc([C@@H]5CCCN5C)c(C(F)(F)F)c4C[C@H]3C[C@@H]12	=	0.125
CN(C)[C@@H]1C(O)=C(C(N)=O)C(=O)[C@@]2(O)C(O)=C3C(=O)c4c(O)cc([C@@H]5CCCN5)c(F)c4C[C@H]3C[C@@H]12	=	8
COc1c(C2CCCN2)cc(O)c2c1C[C@H]1C[C@H]3[C@H](N(C)C)C(O)=C(C(N)=O)C(=O)[C@@]3(O)C(O)=C1C2=O (stereo partly specified)	>	32
CC1CCC(c2cc(O)c3c(c2C(F)(F)F)C[C@H]2C[C@H]4[C@H](N(C)C)C(O)=C(C(N)=O)C(=O)[C@@]4(O)C(O)=C2C3=O)N1C (stereo partly specified)	=	2
CC1CCC(c2cc(O)c3c(c2C(F)(F)F)C[C@H]2C[C@H]4[C@H](N(C)C)C(O)=C(C(N)=O)C(=O)[C@@]4(O)C(O)=C2C3=O)N1 (stereo partly specified)	=	0.25
CCCN1CCC[C@H]1c1cc(O)c2c(c1C(F)(F)F)C[C@H]1C[C@H]3[C@H](N(C)C)C(O)=C(C(N)=O)C(=O)[C@@]3(O)C(O)=C1C2=O	=	4

###

Some compounds, each annotated with its measured MIC.
System: Klebsiella pneumoniae
Assay: Antibacterial activity against gram-negative Klebsiella pneumoniae KP457 harboring blacTX-M-15 extended spectrum beta-lactamase gene by CLSI method
Assay type: functional

COMPOUND	MIC (µg/mL)
CN(C)[C@@H]1C(O)=C(C(N)=O)C(=O)[C@@]2(O)C(O)=C3C(=O)c4c(O)cc([C@@H]5CCCN5)c(F)c4C[C@H]3C[C@@H]12	0.5
COc1c(C2CCCN2)cc(O)c2c1C[C@H]1C[C@H]3[C@H](N(C)C)C(O)=C(C(N)=O)C(=O)[C@@]3(O)C(O)=C1C2=O (stereo partly specified)	2
CC1CCC(c2cc(O)c3c(c2C(F)(F)F)C[C@H]2C[C@H]4[C@H](N(C)C)C(O)=C(C(N)=O)C(=O)[C@@]4(O)C(O)=C2C3=O)N1C (stereo partly specified)	8
CN(C)[C@@H]1C(O)=C(C(N)=O)C(=O)[C@@]2(O)C(O)=C3C(=O)c4c(O)cc([C@@H]5CCCN5)c(C(F)(F)F)c4C[C@H]3C[C@@H]12	0.125
CN(C)[C@@H]1C(O)=C(C(N)=O)C(=O)[C@@]2(O)C(O)=C3C(=O)c4c(O)cc([C@@H]5CCCN5CC5CC5)c(C(F)(F)F)c4C[C@H]3C[C@@H]12	16
CC1CCN(C)C1c1cc(O)c2c(c1C(F)(F)F)C[C@H]1C[C@H]3[C@H](N(C)C)C(O)=C(C(N)=O)C(=O)[C@@]3(O)C(O)=C1C2=O (stereo partly specified)	4

###

Some compounds, each annotated with its measured MIC.
Tested on: Klebsiella pneumoniae
Experiment: Antibacterial activity against gram-negative Klebsiella pneumoniae KP153 harboring tet(A) by CLSI method
Format: functional
PROPERTY NAME: MIC (µg/mL)

> print(dat)
                                   compound  result.comparator  quantitative.result
1  CN1CCCC1c1cc(O)c2c(c1Cl)C[C@H]1C[C@H]3[C@H](N(C)C)C(O)=C(C(N)=O)C(=O)[C@@]3(O)C(O)=C1C2=O (stereo partly specified)                  =                  0.5
2  CN(C)[C@@H]1C(O)=C(C(N)=O)C(=O)[C@@]2(O)C(O)=C3C(=O)c4c(O)cccc4[C@@](C)(O)[C@H]3C[C@@H]12                  >                   32
3  CN1CCCCCC1c1cc(O)c2c(c1Cl)C[C@H]1C[C@H]3[C@H](N(C)C)C(O)=C(C(N)=O)C(=O)[C@@]3(O)C(O)=C1C2=O (stereo partly specified)                  =                    1
4  CN(C)[C@@H]1C(O)=C(C(N)=O)C(=O)[C@@]2(O)C(O)=C3C(=O)c4c(O)cc(-c5cccnc5)c(Cl)c4C[C@H]3C[C@@H]12                  >                   32
5  CN1CCCCC1c1cc(O)c2c(c1Cl)C[C@H]1C[C@H]3[C@H](N(C)C)C(O)=C(C(N)=O)C(=O)[C@@]3(O)C(O)=C1C2=O (stereo partly specified)                  =                    1
6  CN(C)[C@@H]1C(O)=C(C(N)=O)C(=O)[C@@]2(O)C(O)=C3C(=O)c4c(O)cc(-c5ccncc5)c(Cl)c4C[C@H]3C[C@@H]12                  >                   32

###

Some molecules, each annotated with its measured MIC.
Tested on: Klebsiella pneumoniae
Assay: Antibacterial activity against gram-negative Klebsiella pneumoniae KP457 harboring blacTX-M-15 extended spectrum beta-lactamase gene by CLSI method
Format: functional

MOLECULE	MIC [µg/mL]
CN(C)[C@@H]1C(O)=C(C(N)=O)C(=O)[C@@]2(O)C(O)=C3C(=O)c4c(O)cccc4[C@@](C)(O)[C@H]3C[C@@H]12	8
CC(C)N1CCC[C@H]1c1cc(O)c2c(c1C(F)(F)F)C[C@H]1C[C@H]3[C@H](N(C)C)C(O)=C(C(N)=O)C(=O)[C@@]3(O)C(O)=C1C2=O	8
CN(C)[C@@H]1C(O)=C(C(N)=O)C(=O)[C@@]2(O)C(O)=C3C(=O)c4c(O)cc([C@H]5CCCN5)c(C(F)(F)F)c4C[C@H]3C[C@@H]12	0.125
CCCN1CCC[C@H]1c1cc(O)c2c(c1C(F)(F)F)C[C@H]1C[C@H]3[C@H](N(C)C)C(O)=C(C(N)=O)C(=O)[C@@]3(O)C(O)=C1C2=O	16
CC1CCC(c2cc(O)c3c(c2C(F)(F)F)C[C@H]2C[C@H]4[C@H](N(C)C)C(O)=C(C(N)=O)C(=O)[C@@]4(O)C(O)=C2C3=O)N1 (stereo partly specified)	0.25
CCN1CCC[C@H]1c1cc(O)c2c(c1C(F)(F)F)C[C@H]1C[C@H]3[C@H](N(C)C)C(O)=C(C(N)=O)C(=O)[C@@]3(O)C(O)=C1C2=O	4

###

Some compounds, each annotated with its measured MIC.
System: Escherichia coli
Experiment: Antibacterial activity against gram-negative Escherichia coli EC155 harboring tet(A) by CLSI method
Type: functional

COMPOUND	UNIT LABEL	MIC
CN1CCCCC1c1cc(O)c2c(c1Cl)C[C@H]1C[C@H]3[C@H](N(C)C)C(O)=C(C(N)=O)C(=O)[C@@]3(O)C(O)=C1C2=O (stereo partly drawn)	µg/mL	1
CN1CCCC1c1cc(O)c2c(c1Cl)C[C@H]1C[C@H]3[C@H](N(C)C)C(O)=C(C(N)=O)C(=O)[C@@]3(O)C(O)=C1C2=O (stereo partly drawn)	µg/mL	1
CN(C)[C@@H]1C(O)=C(C(N)=O)C(=O)[C@@]2(O)C(O)=C3C(=O)c4c(O)cc(C5CCCN5)c(OC(F)(F)F)c4C[C@H]3C[C@@H]12 (stereo partly drawn)	µg/mL	8

###

System: Escherichia coli
Assay: Antibacterial activity against gram-negative Escherichia coli EC155 harboring tet(A) by CLSI method
Type: functional
PROPERTY NAME: MIC (µg/mL)

COMPOUND	RESULT COMPARATOR	QUANTITATIVE RESULT
CCN1CCC[C@H]1c1cc(O)c2c(c1C(F)(F)F)C[C@H]1C[C@H]3[C@H](N(C)C)C(O)=C(C(N)=O)C(=O)[C@@]3(O)C(O)=C1C2=O	=	0.5
CC1CCC(c2cc(O)c3c(c2C(F)(F)F)C[C@H]2C[C@H]4[C@H](N(C)C)C(O)=C(C(N)=O)C(=O)[C@@]4(O)C(O)=C2C3=O)N1 (some centres not stated)	=	0.5
CC1CCC(c2cc(O)c3c(c2C(F)(F)F)C[C@H]2C[C@H]4[C@H](N(C)C)C(O)=C(C(N)=O)C(=O)[C@@]4(O)C(O)=C2C3=O)N1C (some centres not stated)	=	2
CC(C)N1CCC[C@H]1c1cc(O)c2c(c1C(F)(F)F)C[C@H]1C[C@H]3[C@H](N(C)C)C(O)=C(C(N)=O)C(=O)[C@@]3(O)C(O)=C1C2=O	=	1
CN(C)[C@@H]1C(O)=C(C(N)=O)C(=O)[C@@]2(O)C(O)=C3C(=O)c4c(O)cc(-c5cccnc5)c(Cl)c4C[C@H]3C[C@@H]12	>	32
CN(C)[C@@H]1C(O)=C(C(N)=O)C(=O)[C@@]2(O)C(O)=C3C(=O)c4c(O)cc([C@@H]5CCCN5)c(C(F)(F)F)c4C[C@H]3C[C@@H]12	=	2
COc1c(C2CCCN2)cc(O)c2c1C[C@H]1C[C@H]3[C@H](N(C)C)C(O)=C(C(N)=O)C(=O)[C@@]3(O)C(O)=C1C2=O (some centres not stated)	>	32
CN(C)c1c(C2CCCN2)cc(O)c2c1C[C@H]1C[C@H]3[C@H](N(C)C)C(O)=C(C(N)=O)C(=O)[C@@]3(O)C(O)=C1C2=O (some centres not stated)	=	32
CN1CCCCCC1c1cc(O)c2c(c1Cl)C[C@H]1C[C@H]3[C@H](N(C)C)C(O)=C(C(N)=O)C(=O)[C@@]3(O)C(O)=C1C2=O (some centres not stated)	=	2
CC1CCN(C)C1c1cc(O)c2c(c1C(F)(F)F)C[C@H]1C[C@H]3[C@H](N(C)C)C(O)=C(C(N)=O)C(=O)[C@@]3(O)C(O)=C1C2=O (some centres not stated)	=	2
CN(C)[C@@H]1C(O)=C(C(N)=O)C(=O)[C@@]2(O)C(O)=C3C(=O)c4c(O)cc(-c5ccncc5)c(Cl)c4C[C@H]3C[C@@H]12	>	32
CC(C)CN1CCC[C@H]1c1cc(O)c2c(c1C(F)(F)F)C[C@H]1C[C@H]3[C@H](N(C)C)C(O)=C(C(N)=O)C(=O)[C@@]3(O)C(O)=C1C2=O	>	32

Source: ChEMBL document CHEMBL4007456
